Attribute: melting point
Where a name gives a salt, the structure may show the parent alone.

compound: COc1ccc(C(=O)NCC2CCN(CCCOc3ccc(C(=O)O)cc3)CC2OC)c2c1OCCCO2 (stereo not drawn)
melting point: 179.4 to 189.2 °C
--
compound: Cc1ccc(C(=O)NC[C@@H]2CCN(CCOc3ccc(C(=O)O)cc3)C[C@H]2O)c2c1OCCCO2 (hydrate or solvate)
melting point: > 120 °C

# context switch: different compound, same melting point
In: Fill blank: measured melting point of the compound O=C(O)c1ccc(OCCCN2CC[C@@H](CNC(=O)c3cc(Cl)c(Br)c4c3OCCCO4)[C@H](O)C2)cc1 (relative stereo) (as salt: HCl) (hydrate or solvate) is ____.
Out: 268 °C

---

Attribute: % metabolized (% metabolised compound after 60 minutes)
- measurement.notes: Metabolic stability in liver microsomes, LC-MS analysis
- Assay type: in vitro ADME
- measurement.context: compound 5 μM, microsomes 1 mg/ml, NADPH-generating system, 60 minutes at 37 degrees Celsius

Below, each entry is followed by its recorded % metabolized (% metabolised compound after 60 minutes) result.
compound: Cc1ccc(C(=O)NC[C@@H]2CCN(CCCOc3ccc(C(=O)O)cc3)C[C@H]2O)c2c1OCCCO2 [compound 14]
measured.value: 0%
//
compound: Cc1cc2c(c(C(=O)NC[C@@H]3CCN(CCCCOc4ccc(C(=O)O)cc4)C[C@H]3O)c1)OCCCO2 [compound 2]
measured.value: 6%
//
compound: O=C(O)c1ccccc1OCCCN1CC[C@@H](CNC(=O)c2cc(Cl)cc3c2OCCCO3)[C@H](O)C1 (relative stereo) [compound 7]
measured.value: 14%

In: Fill blank: measured % metabolized (% metabolised compound after 60 minutes) of the compound Cc1ccc(C(=O)NC[C@@H]2CCN(CCCCOc3ccc(C(=O)O)cc3)C[C@H]2O)c2c1OCCCO2 [compound 3] is ____.
Out: 16%

In: Fill blank: measured % metabolized (% metabolised compound after 60 minutes) of the compound O=C(O)c1ccc(OCCCN2CC[C@@H](CNC(=O)c3cc(Cl)c(Br)c4c3OCCCO4)[C@H](O)C2)cc1 (relative stereo) [compound 17] is ____.
Out: 6%

In: Fill blank: measured % metabolized (% metabolised compound after 60 minutes) of the compound O=C(O)c1ccc(OCCCN2CCC(CNC(=O)c3cc(Cl)cc4c3OCCCO4)C(O)C2)cc1 (centres unmarked) [compound 9] is ____.
Out: 7.5%

In: Fill blank: measured % metabolized (% metabolised compound after 60 minutes) of the compound O=C(O)c1ccc(OCCCN2CCC(CNC(=O)c3cc(Cl)c(Cl)c4c3OCCCO4)C(O)C2)cc1 (centres unmarked) [compound 16] is ____.
Out: 3%

In: Fill blank: measured % metabolized (% metabolised compound after 60 minutes) of the compound COC1CN(CCCOc2ccc(C(=O)O)cc2)CCC1CNC(=O)c1cc(C)cc2c1OCCCO2 (centres unmarked) [compound 22] is ____.
Out: 6%

In: Fill blank: measured % metabolized (% metabolised compound after 60 minutes) of the compound Cc1ccc(C(=O)NC[C@@H]2CCN(CCCOc3cccc(C(=O)O)c3)C[C@H]2O)c2c1OCCCO2 [compound 11] is ____.
Out: 1%

In: Fill blank: measured % metabolized (% metabolised compound after 60 minutes) of the compound O=C(O)c1ccc(OCCCCN2CC[C@@H](CNC(=O)c3cc(Cl)cc4c3OCCCO4)[C@H](O)C2)cc1 [compound 5] is ____.
Out: 15%

In: Fill blank: measured % metabolized (% metabolised compound after 60 minutes) of the compound Cc1cc2c(c(C(=O)NCC3CCN(CCCOc4cccc(C(=O)O)c4)CC3O)c1)OCCCO2 (centres unmarked) [compound 12] is ____.
Out: 0%
